# target_under_test: Quadruplex DNA
# method_summary: Binding affinity to HRCC G4 DNA (mitochondrial DNA) (unknown origin) assessed as dissociation constant by SPR analysis
# Type: nucleic-acid assay
readout_label: pKd
Entry type: numeric. Quantity: pKd, the -log10 of concentration in molar units.

Reported pKd of N#C[Se]CCCOc1ccc2cc(C(=O)N3N=C(c4ccc(F)cc4)CC3c3ccc(F)cc3)c(=O)oc2c1 (stereo unspecified) : 7.85

----------
# target_under_test: Quadruplex DNA
# method_summary: Binding affinity to BCL-2 G4 DNA (unknown origin) assessed as dissociation constant by SPR analysis
# Type: nucleic-acid assay
readout_label: Kd (µM)
// return numeric value only (unit: µM, not printed)

Lookup result for N#C[Se]CCCOc1ccc2cc(C(=O)N3N=C(c4ccc(F)cc4)CC3c3ccc(F)cc3)c(=O)oc2c1 (stereo unspecified) ; measured Kd: 0.0785
